# system name: RSV F protein of recombinant mKate-RSV, subtype B (18537) (Respiratory syncytial virus subtype B …, UniProt P13843 26-574)
# protocol text: cell-based or functional assay
readout: Neut IC50 subtype B (µg/mL)
Enter your answer as a number in µg/mL; do not include the unit.

binder	u	Neut IC50 subtype B
ADI-14474 (antibody, V domains shown) VH: QVQLVQSGPEVKKPGASVTISCQASGYIFNHYSITWVRQAPGQGTEWMGWISAYHGKTEYSGKFHGRVTLTTDTGTRTAFLELRDLTSDDTAIYYCARDVPVMGAAFLDYWGQGTLVTVSS VL: EIVLTQSPLSLPVTLGQPASISCRSGQSLEFSDGNTYLTWFQQRPGQSPRRLIFRGSYRDSGVPERFSGSGSGTSFTLTISRVEAEDVGIYFCMQGTHWPPTFGQGTKLEIK	µg/mL	0.016

# next binder below
Lookup result for ADI-14459 (antibody, V domains shown, full-length IgG (yeast-expressed); also called Antibody Number 22; Ab# 22) VH: QVQLVQSGGGLVKPGGSLRLSCAASGFTFSNAWMSWVRQAPGKGLDWVGRIKTKADGGTRDYAAPVKGRFTISRDDSENTLYLQMTSLKTEDTGVYYCSTGPPYKYHDSTGYSVVDYWGQGTLVTVSS VL: SYELTQPPSASGTPGQRVTISCSGGSSNIGSDYVYWYQQLPGTAPKLLIYGSSQRPSGVPDRFSGSQSGTSASLAISGLRSEDEADYYCAMWDDSLNGPVFGGGTKLTVL ; measured Neut IC50 subtype B: 0.753
